Values from patent US20140314667A1

# ASSAYED_SYSTEM: T1, EGFRvIII-Rabbit Fc fusion protein (human; rabbit, UniProt P00533 25-645)
# T1 construct: Made in 293F cells; also called EGFRvIII-RbFc; EGFRvIII-Rab Ig Fc fusion protein; not shown: Hinge-CH2-CH3 domain of rabbit IgG (721 bp fragment)
# TEST_PROTOCOL: ELISA, recombinant antibody supernatant on coated EGFRvIII-RbFc, 1.5 ug/ml
Quick reference for Titer, antigen binding among some binders

Example binders with recorded Titer, antigen binding:
[[record]]
binder = "SC-EGFRvIII-XG1-250 (antibody, IgG1, V domains shown, Recombinant IgG1 kappa; also called sc250; SC250) VH: EGQLLESGGGWVQPGESLRLSCAASGFTFSSYAMSWVRQAPGKGLEWVSAISGSGGSTNYADSVKGRFTISRDNSKNTLYLQVNSLRVEDTAVYYCAGSSGWSEYWGQGTLVTVSS VL: DIQMTQSPSSLSASVGDSVTITCRTSQGIRKNLGWYQQKPGKAPKRLIYAASSLQSGVPSRFSGSGSGTEFTLTISRLQPEDFATYYCLQHHSYPLTFGGGTRVEIR"
observation_type = "Titer, antigen binding"
observed_result = "> 64 titer (1:x dilution of supernatant)"

[[record]]
binder = "anti-EGFRvIII antibody 131 (antibody, human IgG1, V domains shown, Recombinant human IgG1 kappa; also called sc131) VH: QVQLVESGGGVVQSGRSLRLSCAASGFTFRNYGMHWVRQAPGKGLEWVAVIWYDGSDKYYADSVRGRFTISRDNSKNTLYLQMNSLRAEDTAVYYCARDGYDILTGNPRDFDYWGQGTLVTVSS VL: DTVMTQTPLSSHVTLGQPASISCRSSQSLVHSDGNTYLSWLQQRPGQPPRLLIYRISRRFSGVPDRFSGSGAGTDFTLEISRVEAEDVGVYYCMQSTHVPRTFGQGTKVEIK"
observation_type = "Titer, antigen binding"
observed_result = "> 64 titer (1:x dilution of supernatant)"

[[record]]
binder = "SC-EGFRvIII-XG1-342 (antibody, IgG1, V domains shown, Recombinant IgG1 kappa; also called mAb ID 124D4) VH: QVQLVESGGGVVQPGRSLRLSCVASGFTLSSYGMHWVRQAPGKGLEWVAVTSYDGSKKDYADSVKGRFTISRDNSKNTLYLQMNSLRAEDTAVYYCVSEGYCDSTSCYKYYYYGMDVWGQGTTVTVSS VL: DIVMTQSPLSLPVTPGEPASISCRSSQSLLYRNGNNYLDWYLQRPGQSPQLLIYLGSNRASGVPDRFSGSGSGTDFTLKISRVEAEDVGVYYCMQALQTPRTFGQGTKVEIK"
observation_type = "Titer, antigen binding"
observed_result = "> 64 titer (1:x dilution of supernatant)"

[[record]]
binder = "SC-EGFRvIII-XG2-150 (antibody, IgG1, V domains shown, kappa light chain; also called sc150; SC150) VH: QVQLQQSGPGLVKPSQTLSLTCAISGDSVSSYSSAWNWIRQSPSRGLEWLGRAYHRSRWYYEYAVSVKSRINITPDTSKNQFSLQLNSVTPEDTAVYYCARGSRFDYWGQGTLVTVSS VL: DIVMTQTPLSSPVTLGQPASISCRSSQSLVHRDGNTYLSWLQQRPGQPPRLLIYKISNRFSGVPDRFSGSGAGTDFTLKISRVEAEDVGIYFCMHTTQFPWTFGQGTRVEIK"
observation_type = "Titer, antigen binding"
observed_result = "> 64 titer (1:x dilution of supernatant)"


Looking up SC-EGFRvIII-XG1-139 (antibody, IgG1, V domains shown, Recombinant IgG1 kappa; also called sc139; SC139) VH: EVQVLESGGGLVQPGGSLRLSCAASGFTFSSYAMSWVRQAPGKGLEWVSAISGSGGSTNYADSVKGRFTISRDNSKNTLYLQMNSLRAEDTAVYYCAGSSGWSEYWGQGTLVTVSS VL: DIQMTQSPSSLSASVGDRVTITCRASQGIRNNLAWYQQKPGKAPKRLIYAASNLQSGVPSRFTGSGSGTEFTLIVSSLQPEDFATYYCLQHHSYPLTSGGGTKVEIK , I see its Titer, antigen binding listed as > 64 titer (1:x dilution of supernatant)
